The following binders are shown together with reported pKd values.
Molecular target: T1, His-tagged human HtrA1 protease domain (human, UniProt Q92743 161-367)
T1 construct: His-tagged protease domain; also called huHtrA1-PD-His; huHtrA1-PD
T1 sequence (Q92743 other isoform, or with tags, fused parts or gaps limits assumed): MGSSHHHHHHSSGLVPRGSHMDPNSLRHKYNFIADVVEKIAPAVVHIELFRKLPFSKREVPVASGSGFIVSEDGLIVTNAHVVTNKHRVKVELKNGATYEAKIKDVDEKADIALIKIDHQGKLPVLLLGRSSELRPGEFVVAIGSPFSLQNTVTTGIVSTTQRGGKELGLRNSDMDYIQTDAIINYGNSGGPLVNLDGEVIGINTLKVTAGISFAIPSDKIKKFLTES
Test: SPR (BIACORE T200), huHtrA1-PD-His captured by anti-His, Fab injected
pKd: −log10 of the molar value.
property-measured: pKd

- combination mutant LC7.HC5 Fab (Fab, V domains shown, Fab) VH: EVQLVQSGAEVKKPGASVKVSCKASGYTFTDSELHWVRQAPGQGLEWIGGVDPETDGAAYNQKFKGRATITRDTSTSTAYLELSSLRSEDTAVYYCTRGYDYDYALDYWGQGTLVTVSS VL: DIQMTQSPSSLSASVGDRVTITCRASSSVNFIHWYQQKPGKAPKPLISATSNLASGVPSRFSGSGSGTDFTLTISSLQPEDFATYYCQQWYSNPWTFGQGTKVEIK: 9.13
- combination mutant LC7.HC2 Fab (Fab, V domains shown, Fab) VH: EVQLVQSGAEVKKPGASVKVSCKASGYTFRDSEMHWVRQAPGQGLEWIGGVDPETDGAAYNQKFKGRATITRDTSTSTAYLELSSLRSEDTAVYYCTRGYDYDYALDYWGQGTLVTVSS VL: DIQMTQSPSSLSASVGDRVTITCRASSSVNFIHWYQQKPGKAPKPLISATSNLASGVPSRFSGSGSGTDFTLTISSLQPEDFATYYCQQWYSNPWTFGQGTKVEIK: 10.02
- combination mutant LC5.HC3 Fab (Fab, V domains shown, Fab) VH: EVQLVQSGAEVKKPGASVKVSCKASGYKFTDSEMHWVRQAPGQGLEWIGGVDPETDGAAYNQKFKGRATITRDTSTSTAYLELSSLRSEDTAVYYCTRGYDYDYALDYWGQGTLVTVSS VL: DIQMTQSPSSLSASVGDRVTITCRASSSVNFIHWYQQKPGKAPKPLISATSELASGVPSRFSGSGSGTDFTLTISSLQPEDFATYYCQQWSSNPWTFGQGTKVEIK: 8.97
- combination mutant LC7.HC1 Fab (Fab, V domains shown, Fab) VH: EVQLVQSGAEVKKPGASVKVSCKASGYTFKDSEMHWVRQAPGQGLEWIGGVDPETDGAAYNQKFKGRATITRDTSTSTAYLELSSLRSEDTAVYYCTRGYDYDYALDYWGQGTLVTVSS VL: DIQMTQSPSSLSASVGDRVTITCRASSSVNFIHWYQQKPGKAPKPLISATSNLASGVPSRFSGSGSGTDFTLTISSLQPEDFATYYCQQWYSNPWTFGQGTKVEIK: 9.11
- combination mutant LC5.HC1 Fab (Fab, V domains shown, Fab) VH: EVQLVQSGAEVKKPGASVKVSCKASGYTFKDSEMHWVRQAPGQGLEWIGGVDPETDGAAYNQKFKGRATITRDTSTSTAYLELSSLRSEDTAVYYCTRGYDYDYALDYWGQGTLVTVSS VL: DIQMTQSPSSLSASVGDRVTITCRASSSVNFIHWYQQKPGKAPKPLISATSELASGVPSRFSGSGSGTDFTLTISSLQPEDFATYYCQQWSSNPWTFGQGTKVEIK: 8.96
